Let's look at some compounds and their measured INHIBITION.
Tested on: Plasmodium falciparum
Experiment: Screen against P. falciparum Asexual Blood Stage (ABS), at 5uM
Type: functional, Dd2
Details: tested at 5 uM
Screen size: about 65,000 compounds; about 2,100 (3.2%) showed an effect of 50% or more. The median lay at about -52%. This is one part of a sample in which strong results are shown more often than they occur.
Answer format: number, then unit.

As a guide, the following entries are already answered.
COc1cc(F)ccc1-c1ncccc1NC(=O)C(C)C    -81.8%
CCN1CCO[C@@H]2CN(S(=O)(=O)c3cccs3)CC[C@@H]2C1    40.2%
Cc1ccc(S(=O)(=O)N2CC[C@H]3CO[C@H](CN(C)C)[C@H]3C2)cc1    12.4%
COc1cc(N2CCCC(CO)(Cc3ccccc3F)C2)ncn1 (configuration not stated)    -43.6%
CN(Cc1nc2ccccc2o1)CC1CCCN1c1cccnn1 (configuration not stated)    69.3%
Cc1cccc(CN2C[C@@H]3OCCN(c4ccnc(N(C)C)n4)[C@@H]3C2)c1    52.5%

Turning now to a further record.
Could you share which INHIBITION value was measured for `CC(C)C(=O)NCCC(=O)N1CCN(c2ccccn2)CC1` ?
-172%

###

Tested on: Plasmodium falciparum
Assay: Screen against P. falciparum Asexual Blood Stage (ABS), at 5uM
Assay type: functional, Dd2
Settings: tested at 5 uM
In all, about 65,000 compounds went through this assay and about 2,100 (3.2%) showed an effect of 50% or more. The median lay at about -52%. The entries come from a sample that favours strong results as a whole.
Please map values of INHIBITION to classes as shown: low bracket: < -90%; middle bracket: ≥ -90% and < 40%; high bracket: ≥ 40%

COc1cccc(CC2CCCN2CCCO)c1 (stereo unspecified)    middle bracket
CCN(CC1CN(Cc2ccn(C(C)C)n2)CCO1)c1cccnn1 (stereo unspecified)    low bracket
CCC1CN(CC(=O)NCCN2CCCC2)c2ccccc2S1 (stereo unspecified)    high bracket
Cc1cc(NC(=O)CN(c2ccccc2)C(C)C)on1    middle bracket
CC1CCCN(Cc2ccc(C(N)=O)cc2)C1 (stereo unspecified)    low bracket

Which class is correct for the following molecule? Cc1c[nH]nc1C1CCCN1Cc1nccn1C (stereo unspecified)
high bracket

Which class is correct for the following molecule? O=C(O)c1ccc(CC2CCN(Cc3ccc(-c4cc[nH]n4)o3)C2)cc1 (stereo unspecified)
low bracket

Which class is correct for the following molecule? `Cc1ccc(NC2CCN(C(=O)c3ccc(F)cc3Cl)CC2)nn1`
low bracket

###

Let's look at some molecules and their measured INHIBITION.
System: Plasmodium falciparum
Test: Screen against P. falciparum Asexual Blood Stage (ABS), at 5uM
Type: functional, Dd2
Settings: tested at 5 uM
About 2,100 (3.2%) of roughly 65,000 compounds showed an effect of 50% or more. The median lay at about -52%. The full list was thinned out, with strong results kept by preference.
Numeric answer only, unit % assumed.

As a guide, the following entries are already answered.
CCN1CCN(c2ccc(F)cc2C(C)NCc2nc(C)no2)CC1 (centres undefined)    7.98
Cc1nc(C)n(CC2CCCN(CC(=O)Nc3cccnc3)C2)n1 (centres undefined)    -133
COc1ccc(OC)c(-n2nnnc2SCC2CCCN(C)C2)c1 (centres undefined)    42.8

Could you share which INHIBITION value was measured for O=C(N1CCCC1)N1CCC2(CCCN(CCOc3ccccc3)C2)C1 (centres undefined) ?
-1.79

###

Tested on: Plasmodium falciparum
Experiment: Screen against P. falciparum Asexual Blood Stage (ABS), at 5uM
Format: functional, Dd2
Details: tested at 5 uM
In all, about 65,000 compounds went through this assay and about 2,100 (3.2%) showed an effect of 50% or more. The median lay at about -52%. The sample holds strong results, similar compounds and a random draw of the others, so the mix is not that of the screen.
Property Label: INHIBITION (%)
Numeric answer only, unit % assumed.

c1ccc(COc2cccc(CNC3CCc4ncnn4C3)c2)cc1 (centres undefined)    24.8

Could you share which INHIBITION value was measured for CC(C)(C)c1cc(NC(=O)CN2CCCC2Cn2cccn2)on1 (centres undefined) ?
-91.6

Could you share which INHIBITION value was measured for `C/N=C1/c2cc3cc(OC)ccc3n2CCN1Cc1ccccc1` ?
25.3

###

System: Plasmodium falciparum
Test: Screen against P. falciparum Asexual Blood Stage (ABS), at 5uM
Type: functional, Dd2
Conditions: tested at 5 uM
Out of some 65,000 compounds screened, about 2,100 (3.2%) showed an effect of 50% or more. The median lay at about -52%. Many of the other results were omitted from the sample, so strong results are more common in it than they were.
Let's look at some compounds and their measured INHIBITION.
Numeric answer only, unit % assumed.

Could you share which INHIBITION value was measured for `Cc1csc2ncnc(N3CCC(Cn4cc(C(C)(C)N)nn4)CC3)c12` ?
35

Could you share which INHIBITION value was measured for CSc1ccc(-c2nc(CN3CCNCC3C)c(C)o2)cc1 (stereo not drawn) ?
35.1

Could you share which INHIBITION value was measured for COCC(=O)N1CCCC1c1ccc(C(=O)NCCN2CCCCC2)s1 (stereo not drawn) ?
-139

###

System: Plasmodium falciparum
Test: Screen against P. falciparum Asexual Blood Stage (ABS), at 5uM
Assay type: functional, Dd2
Settings: tested at 5 uM
Screen size: about 65,000 compounds; about 2,100 (3.2%) showed an effect of 50% or more. The median lay at about -52%. Only a selection was taken, and strong results are over-represented in it overall.
We use -20% as the dividing line for INHIBITION: on or above the line is label 1, below is label 0.

Examples with answers:
CCC(=O)N1CC[C@H]2[C@H](C[C@@H](Cn3cccn3)N2c2nccs2)C1    label 1
CC(C)c1nc(N2CCC(N3CCSCC3)CC2)c2cnn(C)c2n1    label 0
CC(=O)c1ccc(NC(=O)c2ccc3c(c2)C2(CCCCC2)CN3)cc1    label 1
CN1[C@H](CN2CCCC2)C[C@@H]2CN(Cc3ccoc3)CC[C@@H]21    label 1
CC(C)CC(=O)N1CC(=O)c2sc(Nc3ccc(F)cc3F)nc2C1    label 0

Hi, just wondering whether `Cc1ccc(N2CC[C@@H]3[C@@H]2CCN3C(=O)Cc2ccccc2)nn1` shows INHIBITION of -20% or higher.
label 0

Hi, just wondering whether `CCNCCOc1ccc(-c2cc(N)nc3[nH]ccc23)cc1` shows INHIBITION of -20% or higher.
label 1

Hi, just wondering whether `O=C(CC1CC1)N[C@@H]1CN(C(=O)c2ccsc2)C[C@@H]2CCCO[C@@H]21` shows INHIBITION of -20% or higher.
label 1

Hi, just wondering whether COCC1c2nnn(C)c2CCN1C(=O)COc1ccccc1OC (stereo unspecified) shows INHIBITION of -20% or higher.
label 0

Hi, just wondering whether Cc1nccn1CCC1CCCCN1Cc1cnc(N(C)C)nc1 (stereo unspecified) shows INHIBITION of -20% or higher.
label 1

###

Tested on: Plasmodium falciparum
Assay: Screen against P. falciparum Asexual Blood Stage (ABS), at 5uM
Type: functional, Dd2
Settings: tested at 5 uM
Screen size: about 65,000 compounds; about 2,100 (3.2%) showed an effect of 50% or more. The median lay at about -52%. For the sample, strong results were picked, then their nearest neighbours and some compounds at random.
Property Label: INHIBITION (%)
Numeric answer only, unit % assumed.

CCOc1cc(C=Cc2ncc(C(=O)NC)s2)ccc1OC    25.6
Clc1cccc(CNc2cnn(CCN3CCCCC3)c2)c1    53.3
CC(OCC1CC1)C(=O)Nc1ncccc1I (stereo not given)    -86.5
Cn1ccnc1CN1CCCC1CCc1ccccc1 (stereo not given)    37.6

Turning now to a further record.
Could you share which INHIBITION value was measured for COc1cccc(-c2noc(C3CCN(Cc4ccc(C)cc4)C3)n2)c1 (stereo not given) ?
-97.2
